# Tested on: PA-1
# test-description: Primary qHTS to identify gynecologic anti-cancer compounds using libraries of approved drugs and bioactive compounds (AID 1345084); note: nearly all actives have a fitted effect of over 55% in size
# measurement-conditions: Gynecologic cancer cell panel viability, ATPlite luminescence, 48 h; series mostly up to 57.5 µM
# Text: National Center for Advancing Translational Sciences [NCATS] Assay Overview: Chemotherapeutic drug responses vary from cancer to cancer and from patient to patient. […] ATPlite is a luminescence based assay reliant on the conversion of a luciferase substrate to light in the presence of ATP. As a cytotoxic compound will suppress growth and decrease the number of cells, the concentration of ATP will decrease, and less light signal will be detected in the well. […]
Results filed as inconclusive are left out. Calls of active or inactive are those of the source. Calls come from the whole dose curve; as a rule, active = well fitted cell-killing curve with a large enough effect; inconclusive = small, poorly fitted or top-dose-only effect, or effect the other way; inactive = flat fitted curve, though single readings scatter.
Your response should consist of one outcome taken from true (1) = active, false (0) = inactive

{"molecule": "CN(C)c1nc(Cc2ccc(NC(=O)c3ccc4ccccc4c3)cc2)nc(Cl)c1CC(=O)O", "target-or-system": "PA-1", "category-label": "false (0)"}
{"molecule": "CCCNC(=O)Nc1ccc(Oc2ncnc3cc(OC)c(OC)cc23)cc1Cl", "target-or-system": "PA-1", "category-label": "false (0)"}

Any idea what this test logged for `Nc1ccccc1NC(=O)c1ccc(CNC(=O)OCc2cccnc2)cc1` ?
true (1)

Would you mind doing `COc1cc2c(cc1-c1c(C)noc1C)ncc1[nH]c(=O)n([C@H](C)c3ccccn3)c12` as well?
false (0)

Would you mind doing `O=C(Nc1cn[nH]c1-c1nc2ccc(CN3CCOCC3)cc2[nH]1)NC1CC1` as well?
true (1)

----------
# test-description: qHTS of pediatric cancer cell lines to identify multiple opportunities for drug repurposing: Confirmatory screen for BT-37 cells (AID 1347117); note: potency is the fitted concentration of half-maximal effect;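 note: viability measured after 48 h of compound exposure; nearly all actives have a fitted effect of over 55% in size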
# measurement-conditions: BT-37 pediatric cancer cells, viability; series mostly up to 45.9 µM
Results filed as inconclusive are left out. Activity calls are given as the source filed them. Calls follow the shape of the dose curve; as a rule, active = well fitted cell-killing curve with a large enough effect; inconclusive = small, poorly fitted or top-dose-only effect; inactive = no such curve, though single readings can be large or run the other way.
measurement-type: Potency

Some solved entries appear below for comparison.
{"molecule": "Cc1nc(N)ncc1-c1nc(N2CCOCC2)c2sc(C(C)(C)O)cc2n1", "reported": "8270 nM (active)"}
{"molecule": "O=C(Cc1ccc(-c2ccc(OCCN3CCOCC3)cc2)cn1)NCc1ccccc1", "reported": "147 nM (active)"}
{"molecule": "COc1cc(=C2C=c3ccccc3=N2)[nH]c1=Cc1[nH]c(C)cc1C", "reported": "7370 nM (active)"}
{"molecule": "NCC(=O)Nc1ccc(-n2nc(C(F)(F)F)cc2-c2ccc3c(ccc4ccccc43)c2)cc1", "reported": "2930 nM (active)"}
{"molecule": "Cn1c2ccccc2c2c3c(c4c5ccccc5n(CCC#N)c4c21)CNC3=O", "reported": "5850 nM (active)"}

// returns reported Potency for input `COCCn1c2c([n+](Cc3cnccn3)c1C)C(=O)c1ccccc1C2=O`
82.7 nM (active)

Would you mind doing `CNC(=O)c1ccc(N2C(=S)N(c3cnc(C#N)c(C(F)(F)F)c3)C(=O)C23CCC3)cc1F` as well?
inactive

Would you mind doing `CC(C)c1cnn2c(NCc3ccccc3)cc(N[C@@H](CO)[C@H](O)CO)nc12` as well?
369 nM (active)

----------
# test-description: qHTS of pediatric cancer cell lines to identify multiple opportunities for drug repurposing: Primary screen for SJ-GBM2 cells (AID 1347091)
# measurement-conditions: SJ-GBM2 viability, CellTiter-Glo luminescence, 48 h; series mostly up to 46 µM
Records with an inconclusive call do not appear. Calls of active or inactive are those of the source. The call rests on the fitted dose curve; in most records, active means well fitted cell-killing curve with a large enough effect; inconclusive means small, poorly fitted or top-dose-only effect; inactive means no such curve, though single readings can be large or run the other way.
Your response should consist of one outcome taken from class 1 for active, class 0 for inactive

Below, 6 molecules whose answers are already recorded.
{"molecule": "COC(=O)C[C@](O)(CCCC(C)(C)O)C(=O)O[C@@H]1C(OC)=C[C@]23CCCN2CCc2cc4c(cc2[C@H]13)OCO4", "category-label": "class 0"}
{"molecule": "CC(C)C[C@H](NC(=O)CNC(=O)c1cc(Cl)ccc1Cl)B(O)O", "category-label": "class 1"}
{"molecule": "COc1cccc(Nc2c(C(N)=O)cnc3c(C)cc(S(=O)(=O)c4cccc(C(=O)N(C)C)c4)cc23)c1", "category-label": "class 0"}
{"molecule": "COc1ccc(C=Cc2cc(OC)c(OC)c(OC)c2)cc1O", "category-label": "class 1"}
{"molecule": "CCCCCCCCCC(=O)N[C@@H](Cc1c[nH]c2ccccc12)C(=O)N[C@H](CC(N)=O)C(=O)N[C@@H](CC(=O)O)C(=O)N[C@@H]1C(=O)NCC(=O)N[C@@H](CCCN)C(=O)N[C@@H](CC(=O)O)C(=O)N[C@H](C)C(=O)N[C@@H](CC(=O)O)C(=O)NCC(=O)N[C@H](CO)C(=O)N[C@@H]([C@@H](C)CC(=O)O)C(=O)N[C@@H](CC(=O)c2ccccc2N)C(=O)O[C@@H]1C", "category-label": "class 0"}
{"molecule": "O=C(O)[C@H](Cc1c[nH]c2ccccc12)N1C(=O)c2ccccc2C1=O", "category-label": "class 0"}

Any idea what this test logged for `CC(C)c1cc(-c2n[nH]c(=O)n2-c2ccc3c(ccn3C)c2)c(O)cc1O` ?
class 1
